// provenance: patent US20260207798A1

# system-under-test: T1, human Granzyme B (human, UniProt P10144 21-247)
# T1 construct: Captured on a Series S Streptavidin chip for SPR; also called hGranzyme B; GzmB
# T1 sequence (P10144 21-247 limits assumed): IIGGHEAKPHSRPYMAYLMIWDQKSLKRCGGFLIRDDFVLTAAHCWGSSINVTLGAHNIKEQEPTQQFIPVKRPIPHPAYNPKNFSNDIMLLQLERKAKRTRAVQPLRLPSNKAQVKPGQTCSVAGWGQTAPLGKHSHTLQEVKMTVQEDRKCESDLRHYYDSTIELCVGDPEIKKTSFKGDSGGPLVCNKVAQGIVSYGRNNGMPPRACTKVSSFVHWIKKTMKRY
# test-description: SPR, Biacore 8k+, hGranzyme B captured on SA chip, single cycle kinetics, 1:1 model
# Description: The kinetics of test peptide binding to human Granzyme B (hGranzyme B) was determined by SPR. All experiments were performed at 25° C. using the Biacore 8k+ instrument (Cytiva, Marlborough, MA). […] Peptide dilution series included 2 zero concentration points (no compound) which were averaged and subtracted from the peptide concentration injection as DMSO control responses. […] Corrected response data were analyzed using the Biacore 8k+ Evaluation Software Version 3.0 according to the manufacturer. […]
Bridge positions count the residues as written; N and C are the ends. Square brackets hold non-standard residues; d marks the D form. Pro(cis-4-Ph) = O=C(O)[C@@H]1C[C@H](c2ccccc2)CN1; NMeA = CN[C@@H](C)C(=O)O
value-type: Kd (nM)
Give bare numbers, in nM.

{CH2CO}-FNFEDQSVDTWQPCG-NH2 (thioether N-14; SMILES CC(C)[C@@H]1NC(=O)[C@H](CO)NC(=O)[C@H](CCC(N)=O)NC(=O)[C@H](CC(=O)O)NC(=O)[C@H](CCC(=O)O)NC(=O)[C@H](Cc2ccccc2)NC(=O)[C@H](CC(N)=O)NC(=O)[C@H](Cc2ccccc2)NC(=O)CSC[C@@H](C(=O)NCC(N)=O)NC(=O)[C@@H]2CCCN2C(=O)[C@H](CCC(N)=O)NC(=O)[C@H](Cc2c[nH]c3ccccc23)NC(=O)[C@H]([C@@H](C)O)NC(=O)[C@H](CC(=O)O)NC1=O) [Compound 24a] | 28.8
{CH2CO}-FNFEDQSPDTWQ[NMeA]CG-NH2 (thioether N-14; SMILES C[C@@H](O)[C@@H]1NC(=O)[C@H](CC(=O)O)NC(=O)[C@@H]2CCCN2C(=O)[C@H](CO)NC(=O)[C@H](CCC(N)=O)NC(=O)[C@H](CC(=O)O)NC(=O)[C@H](CCC(=O)O)NC(=O)[C@H](Cc2ccccc2)NC(=O)[C@H](CC(N)=O)NC(=O)[C@H](Cc2ccccc2)NC(=O)CSC[C@@H](C(=O)NCC(N)=O)NC(=O)[C@H](C)N(C)C(=O)[C@H](CCC(N)=O)NC(=O)[C@H](Cc2c[nH]c3ccccc23)NC1=O) [Compound 67a] | 12.4
{CH2CO}-YNFEDQSPDTWQPCG-NH2 (thioether N-14; SMILES C[C@@H](O)[C@@H]1NC(=O)[C@H](CC(=O)O)NC(=O)[C@@H]2CCCN2C(=O)[C@H](CO)NC(=O)[C@H](CCC(N)=O)NC(=O)[C@H](CC(=O)O)NC(=O)[C@H](CCC(=O)O)NC(=O)[C@H](Cc2ccccc2)NC(=O)[C@H](CC(N)=O)NC(=O)[C@H](Cc2ccc(O)cc2)NC(=O)CSC[C@@H](C(=O)NCC(N)=O)NC(=O)[C@@H]2CCCN2C(=O)[C@H](CCC(N)=O)NC(=O)[C@H](Cc2c[nH]c3ccccc23)NC1=O) [Compound 39a] | 1.1

--- query ---
Prompt line: Identify Kd associated with the binder {CH2CO}-FNFEDQSPDTWQ[Pro(cis-4-Ph)]CG-NH2 (thioether N-14) [Compound 50a]
Response line: 4.6
